Experiment: Metabolic stability against human hepatic S9 fraction
Assay type: in vitro ADME
Details: human, s9
Description: For the evaluation of combined phase I and phase II metabolic stability, the compound (1 μM) was incubated with 1 mg/mL pooled human liver S9 fraction (BD Gentest), 2 mM NADPH regenerating system, 1 mM UDPGA, 10 mM MgCl2 and 0.1 mM PAPS at 37° C. for 0, 5, 15, 30 and 60 min. The metabolic stability of Testosterone (1 μM) and 7-hydroxycoumarin (1 μM) were determined in parallel to confirm the enzymatic activity of the S9 fraction. […]

- moleculeSmiles: "FC(F)(F)c1cc(NCc2cnc(-c3ccc(Oc4ccccc4)cc3)s2)ccn1"
  half-life at 1 μM: "> 1 h"

---

biological target: PqsR (Pseudomonas aeruginosa); test: E. coli based β-galactosidase reporter gene assay (PqsR inverse agonistic activity); assay type: cell-based; parameters: expressed in transfected cells; host or cells: Escherichia coli DH5α
Sequence (Q9I4X0 whole entry): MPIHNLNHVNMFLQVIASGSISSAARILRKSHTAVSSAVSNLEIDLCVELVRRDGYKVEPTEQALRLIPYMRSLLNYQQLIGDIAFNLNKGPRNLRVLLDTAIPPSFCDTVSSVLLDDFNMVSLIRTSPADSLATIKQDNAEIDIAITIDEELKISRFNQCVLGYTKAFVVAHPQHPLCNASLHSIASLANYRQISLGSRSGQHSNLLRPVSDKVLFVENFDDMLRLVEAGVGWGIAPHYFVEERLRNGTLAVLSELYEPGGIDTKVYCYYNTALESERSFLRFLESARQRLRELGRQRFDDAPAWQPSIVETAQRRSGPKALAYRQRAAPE

- moleculeSmiles: "FC(F)(F)c1cc(NCc2cn(-c3ccc(Oc4ccccc4)cc3)nn2)cc(I)n1"
  testSystem: "PqsR (Pseudomonas aeruginosa)"
  IC50: "≤ 0.05 µM"
- moleculeSmiles: "Nc1cc(SCc2nc3cc(Cl)ccc3[nH]2)nc(C(F)(F)F)n1"
  testSystem: "PqsR (Pseudomonas aeruginosa)"
  IC50: "0.051 to 0.25 µM"
- moleculeSmiles: "FC(F)(F)c1cc(NCc2cnc(-c3ccc(Oc4ccccc4)cc3)nc2)ccn1"
  testSystem: "PqsR (Pseudomonas aeruginosa)"
  IC50: "0.051 to 0.25 µM"
- moleculeSmiles: "FC(F)(F)c1cc(NCc2cn(-c3cccc(Cl)c3)nn2)ccn1"
  testSystem: "PqsR (Pseudomonas aeruginosa)"
  IC50: "0.051 to 0.25 µM"
- moleculeSmiles: "FC(F)(F)c1cc(SCc2nc3cc(Cl)ccc3[nH]2)ccn1"
  testSystem: "PqsR (Pseudomonas aeruginosa)"
  IC50: "0.251 to 1 µM"
- moleculeSmiles: "FC(F)(F)c1cc(NCc2cn(-c3ccc(-n4ncc5ccccc54)cc3)nn2)ccn1"
  testSystem: "PqsR (Pseudomonas aeruginosa)"
  IC50: "0.051 to 0.25 µM"
- moleculeSmiles: "Fc1cccc(Oc2ccc3[nH]c(CSc4ccnc(C(F)(F)F)c4)nc3c2)c1"
  testSystem: "PqsR (Pseudomonas aeruginosa)"
  IC50: "≤ 0.05 µM"
- moleculeSmiles: "Fc1cc(-n2cc(CNc3ccnc(C(F)(F)F)c3)nn2)ccc1Oc1ccccc1"
  testSystem: "PqsR (Pseudomonas aeruginosa)"
  IC50: "≤ 0.05 µM"

---

Biological target: PqsR (Pseudomonas aeruginosa)
Assay: E. coli based β-galactosidase reporter gene assay (PqsR inverse agonistic activity)
Format: cell-based
Design: expressed in transfected cells; host or cells: Escherichia coli DH5α
Experimental: Inhibition of pqsR-dependent gene expression of test compounds was determined in an E. coli based β-galactosidase reporter gene assay.[19] […] Antagonistic effects of compounds were evaluated in the presence of/in competition to 50 nM PQS. […] Finally, 995 μL of culture was added to each well and the p-galactosidase activity was determined by ortho-nitrophenyl-p-galactoside conversion in permeabilized cells after a 2.5 h incubation period (37° C., 180 rpm). […]
pIC50: −log10 of the molar value.

- compound: "COc1ccc(-c2ncc(CNc3ccnc(C#N)c3)s2)cc1Cl [Compound 077]"
  pIC50: "≥ 7.30"
- compound: "FC(F)(F)c1cc(NCc2csc(-c3ccc(C4CC4)cc3)n2)ccn1 [Compound 081]"
  pIC50: "≥ 7.30"
- compound: "FC(F)(F)c1cc(NCc2cn(-c3ccc(Oc4ccccn4)c(Cl)c3)nn2)ccn1 [Compound 034]"
  pIC50: "≥ 7.30"
- compound: "FC(F)(F)c1cc(NCc2cn(-c3cccc(CN4CCOCC4)c3)nn2)ccn1 [Compound 002]"
  pIC50: "6.00 to 6.60"
- compound: "FC(F)(F)c1cc(NCc2cn(-c3ccc(Oc4cccc(Cl)c4)cc3)nn2)ccn1 [Compound 030]"
  pIC50: "≥ 7.30"
- compound: "FC(F)(F)c1cc(OCc2nc3cc(Cl)c(Cl)cc3[nH]2)ccn1 [Compound 120]"
  pIC50: "6.00 to 6.60"
- compound: "FC(F)(F)c1cc(NCc2nnc(-c3ccc(Oc4ccccc4)cc3)[nH]2)ccn1 [Compound 095]"
  pIC50: "6.60 to 7.29"
- compound: "CSc1cccc(-n2cc(CNc3ccnc(C(F)(F)F)c3)nn2)c1 [Compound 015]"
  pIC50: "6.60 to 7.29"
- compound: "FC(F)(F)c1cc(NCc2ccc(-c3ccc(Cl)nc3)cn2)ccn1 [Compound 098]"
  pIC50: "6.60 to 7.29"

---

biological target: PqsR (Pseudomonas aeruginosa); assay: E. coli based β-galactosidase reporter gene assay (PqsR inverse agonistic activity); type: cell-based; design: expressed in transfected cells; host or cells: Escherichia coli DH5α
measure: IC50

- moleculeSmiles: "FC(F)(F)c1cc(NCc2ccc(-c3ccc(Oc4ccccc4)cc3)cn2)ccn1"
  reading: "51 to 250 nM"
- moleculeSmiles: "Fc1cc2nc(CSc3ccnc(C(F)(F)F)c3)[nH]c2cc1Cl"
  reading: "251 to 1000 nM"
- moleculeSmiles: "FC(F)(F)c1cc(NCc2cn(-c3ccc(-n4ccc5ccncc54)cc3)nn2)ccn1"
  reading: "≤ 50 nM"
- moleculeSmiles: "CC(C)Oc1ccc(-n2cc(CNc3cc(Cl)nc(Cl)c3)nn2)cc1Cl"
  reading: "≤ 50 nM"
- moleculeSmiles: "FC(F)(F)c1cc(NCc2cn(-c3ccc(Oc4ccccc4)c(Cl)c3)nn2)ccn1"
  reading: "≤ 50 nM"
- moleculeSmiles: "FC(F)(F)c1cc(NCc2ncc(-c3ccc(Oc4ccccc4)cc3)s2)ccn1"
  reading: "≤ 50 nM"
- moleculeSmiles: "FC(F)(F)c1cc(SCc2nc3cc(Sc4ccccc4)ccc3[nH]2)ccn1"
  reading: "≤ 50 nM"
- moleculeSmiles: "FC(F)(F)c1cc(SCc2ccc(-c3ccc(Cl)nc3)cn2)ccn1"
  reading: "51 to 250 nM"

---

assay: Kinetic Turbidimetric Aqueous Solubility at room temperature for 5 min; assay type: physicochemical; settings: PBS buffer, kinetic from dmso stock, 2% DMSO
Listed molecules paired with reported solubility at 5 min
measure: solubility at 5 min

- moleculeSmiles: "CC(C)Oc1ccc(-n2cc(CNc3cc(Cl)nc(C(F)(F)F)c3)nn2)cc1Cl"
  measure: "solubility at 5 min"
  reading: "> 10 µM"
- moleculeSmiles: "FC(F)(F)c1cc(SCc2nc3cc(Sc4ccccc4)ccc3[nH]2)ccn1"
  measure: "solubility at 5 min"
  reading: "> 10 µM"
- moleculeSmiles: "FC(F)(F)c1cc(NCc2cnc(-c3ccc(Cl)nc3)s2)ccn1"
  measure: "solubility at 5 min"
  reading: "≥ 100 µM"
- moleculeSmiles: "FC(F)(F)c1cc(NCc2ccc(-c3ccc(Cl)nc3)cn2)ccn1"
  measure: "solubility at 5 min"
  reading: "≥ 100 µM"
- moleculeSmiles: "FC(F)(F)c1cc(OCc2nc3cc(Cl)c(Cl)cc3[nH]2)ccn1"
  measure: "solubility at 5 min"
  reading: "> 50 µM"

---

experiment: Kinetic Turbidimetric Aqueous Solubility at room temperature for 5 min; assay type: physicochemical; details: aqueous buffer, kinetic from dmso stock, PBS buffer, 2% DMSO

- compound: "CC(C)Oc1ccc(-c2ncc(CNc3ccnc(C(F)(F)F)c3)cn2)cc1Cl [Compound 108]"
  solubility at 5 min: "> 25 µM"

---

assay: Metabolic stability in mouse liver microsomes (MLM); assay type: in vitro ADME; conditions: 1 μM compound, 0.5 mg/mL MLM, 1 mM NADPH, 37° C., read-out: half-life (t1/2) towards MLM
Recorded half-life at 1 μM values for a group of compounds are listed next.

- compound: "FC(F)(F)c1cc(NCc2ccc(-c3cnc(Cl)c(Cl)c3)cn2)ccn1 [Compound 102]"
  half-life at 1 μM: "0.517 to 1 h"
- compound: "FC(F)(F)c1cc(NCc2cn(-c3ccc(Oc4ccc(Cl)cc4)cc3)nn2)ccn1 [Compound 037]"
  half-life at 1 μM: "> 1 h"
- compound: "FC(F)(F)c1cc(NCc2cn(-c3ccc(Br)cc3)nn2)ccn1 [Compound 039]"
  half-life at 1 μM: "0.517 to 1 h"
- compound: "CC(C)Oc1ccc(-c2ccc(CNc3ccnc(C(F)(F)F)c3)nc2)cc1Cl [Compound 165]"
  half-life at 1 μM: "> 1 h"
- compound: "FC(F)(F)c1cc(NCc2cn(-c3ccc(Oc4ccccc4)cc3)nn2)cc(I)n1 [Compound 007]"
  half-life at 1 μM: "0.517 to 1 h"
- compound: "FC(F)(F)c1cc(NCc2cnc(-c3ccc(Cl)nc3)s2)ccn1 [Compound 073]"
  half-life at 1 μM: "> 1 h"
- compound: "N#Cc1cc(NCc2cn(-c3ccc(Oc4ccccc4)cc3)nn2)ccn1 [Compound 041]"
  half-life at 1 μM: "0.517 to 1 h"
- compound: "Fc1ccc(Oc2ccc(-c3nc(CNc4ccnc(C(F)(F)F)c4)cs3)cn2)cc1 [Compound 083]"
  half-life at 1 μM: "> 1 h"
- compound: "FC(F)(F)c1cc(NCc2nc3cc(Cl)c(Cl)cc3[nH]2)ccn1 [Compound 121]"
  half-life at 1 μM: "0.517 to 1 h"
- compound: "Fc1ccc(Oc2ccc3[nH]c(CNc4ccnc(C(F)(F)F)c4)nc3c2)cc1 [Compound 172]"
  half-life at 1 μM: "0.517 to 1 h"
- compound: "Fc1ccccc1Oc1ccc(-n2cc(CNc3ccnc(C(F)(F)F)c3)nn2)cc1 [Compound 144]"
  half-life at 1 μM: "0.517 to 1 h"
- compound: "FC(F)(F)c1cc(NCc2cn(-c3ccc(-n4cnc5ccccc54)cc3)nn2)ccn1 [Compound 045]"
  half-life at 1 μM: "0.517 to 1 h"
- compound: "Oc1cc(NCc2cn(-c3ccc(Oc4ccccc4)cc3)nn2)cc(C(F)(F)F)n1 [Compound 050]"
  half-life at 1 μM: "> 1 h"
- compound: "FC(F)(F)c1cc(NCc2ccc(-c3ccc(Cl)nc3)cn2)ccn1 [Compound 098]"
  half-life at 1 μM: "> 1 h"
- compound: "FC(F)(F)c1cc(NCc2cnc(-c3ccc(Oc4ccccc4)cc3)nc2)ccn1 [Compound 105]"
  half-life at 1 μM: "0.517 to 1 h"
